tested on: hair follicles / hair growth in depilated C57BL/6 mice; assay: Hair growth in C57BL/6 mice after rosin/paraffin depilation; assay type: in vivo; details: hair removal area on the back of mice, after hair removal
Marks after values point to notes of the source that are not given here.
MEASUREMENT LABEL: Skin black-turning time

{"columns": ["COMPOUND", "Skin black-turning time"],
 "data": [
  ["Nc1cc(N2CCCCC2)nc(N)[n+]1[O-] [Positive control group, minoxidil]", "6.29* days"]
]}

Could you share what Skin black-turning time was measured for COc1ccc(CCC(=O)N(c2nccc3ccccc23)[C@@H]2CCCNC2)cc1 , tested on hair follicles / hair growth in depilated C57BL/6 mice?
5.96* days
